A collection of compounds and their measured Imax
Target: Muscarinic acetylcholine receptor M1 (Homo sapiens);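 further: radioligand displacement of [3H]NMS from human M1 receptor in CHO cell membranes, 1–2 h incubation, scintillation counting, expressed relative to control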
Details: CHO, at 100 µM

compound | unit of measure | Imax
O=C(OCCCc1ccc(Cl)c(Cl)c1)N(c1ccccc1)C1CN2CCC1CC2 (stereo unspecified) | % | 100
CN1CCCC(OC(=O)N(CCc2ccc(F)cc2)c2ccccc2)C1 (stereo unspecified) | % | 99.9
COc1ccc(CCCOC(=O)N(c2ccccc2)C2CN3CCC2CC3)cc1 (stereo unspecified) | % | 98.5
O=C(OCc1ccccc1)N(c1ccccc1)C1CN2CCC1CC2 (stereo unspecified) | % | 99.5
COc1ccc(CCCOC(=O)N(c2ccccc2)C2CN3CCC2CC3)cc1OC (stereo unspecified) | % | 97.1
COc1ccc(COC(=O)N(c2ccccc2)C2CN3CCC2CC3)cc1F (stereo unspecified) | % | 99.5
COc1ccc(COC(=O)N(c2ccccc2)C2CN3CCC2CC3)cc1OC (stereo unspecified) | % | 96.8
O=C(OCCCc1ccc(F)c(F)c1)N(c1ccccc1)C1CN2CCC1CC2 (stereo unspecified) | % | 100
COc1ccc(CCN(C(=O)OC2CN3CCC2CC3)c2ccccc2)cc1OC (racemic) | % | 100
COc1ccc(COC(=O)N(c2ccccc2)C2CN3CCC2CC3)cc1 (stereo unspecified) | % | 97.9
COc1ccc(CCN(C(=O)OC2CCN(C)CC2)c2ccccc2)cc1 | % | 99.8

###

Dear all, this message contains log10 Ki results, target or system Muscarinic acetylcholine receptor M3 (Homo sapiens, UniProt P20309).
test readout: log10 Ki (log10 of the value in nM)

compound | assayed system | test readout | reported result
CN1CCC(OC(=O)N(CCc2ccc(F)cc2)c2ccccc2)CC1 | Muscarinic acetylcholine receptor M3 (Homo sapiens, UniProt P20309) | log10 Ki | 2.15
COc1ccc(CCN(C(=O)OC2CCCN(C)C2)c2ccccc2)cc1OC (configuration not stated) | Muscarinic acetylcholine receptor M3 (Homo sapiens, UniProt P20309) | log10 Ki | 3.64
O=C(OCCc1ccc(Cl)c(Cl)c1)N(c1ccccc1)C1CN2CCC1CC2 (configuration not stated) | Muscarinic acetylcholine receptor M3 (Homo sapiens, UniProt P20309) | log10 Ki | 2.41
O=C(OCc1ccccc1)N(c1ccccc1)C1CN2CCC1CC2 (configuration not stated) | Muscarinic acetylcholine receptor M3 (Homo sapiens, UniProt P20309) | log10 Ki | 1.95
COc1ccc(CCOC(=O)N(c2ccccc2)C2CN3CCC2CC3)cc1OC (configuration not stated) | Muscarinic acetylcholine receptor M3 (Homo sapiens, UniProt P20309) | log10 Ki | 3.44
O=C(OCCc1ccc2c(c1)OCO2)N(c1ccccc1)C1CN2CCC1CC2 (configuration not stated) | Muscarinic acetylcholine receptor M3 (Homo sapiens, UniProt P20309) | log10 Ki | 2.46
CN1CCCC(OC(=O)N(CCc2ccc(F)cc2)c2ccccc2)C1 (configuration not stated) | Muscarinic acetylcholine receptor M3 (Homo sapiens, UniProt P20309) | log10 Ki | 2.54
Cc1ccc(CCCOC(=O)N(c2ccccc2)C2CN3CCC2CC3)cc1F (configuration not stated) | Muscarinic acetylcholine receptor M3 (Homo sapiens, UniProt P20309) | log10 Ki | 2.11
COc1ccc(CCN(C(=O)OC2C[C@H]3CC[C@H](C2)N3C)c2ccccc2)cc1 (some centres not stated) | Muscarinic acetylcholine receptor M3 (Homo sapiens, UniProt P20309) | log10 Ki | 2.43
O=C(OCc1ccc2c(c1)OCO2)N(c1ccccc1)C1CN2CCC1CC2 (configuration not stated) | Muscarinic acetylcholine receptor M3 (Homo sapiens, UniProt P20309) | log10 Ki | 1.28
O=C(OCc1ccc(Cl)c(Cl)c1)N(c1ccccc1)C1CN2CCC1CC2 (configuration not stated) | Muscarinic acetylcholine receptor M3 (Homo sapiens, UniProt P20309) | log10 Ki | 1.85
O=C(OCCCc1ccccc1)N(c1ccccc1)C1CN2CCC1CC2 (configuration not stated) | Muscarinic acetylcholine receptor M3 (Homo sapiens, UniProt P20309) | log10 Ki | 2.74

###

Molecular target: Muscarinic acetylcholine receptor M5 (Homo sapiens)
Assay: Displacement of [3H]NMS from human M5 AChR expressed in CHO cell membranes at 100 uM after 1 to 2 hrs by liquid scintillation spectrometry method relative to control

molecule | Imax / %
O=C(OCc1ccc2c(c1)OCO2)N(c1ccccc1)C1CN2CCC1CC2 (stereo not given) | 99.7
O=C(OCCc1ccc2c(c1)OCO2)N(c1ccccc1)C1CN2CCC1CC2 (stereo not given) | 97.1
O=C(OCc1ccc(Cl)c(Cl)c1)N(c1ccccc1)C1CN2CCC1CC2 (stereo not given) | 98.6
COc1ccc(CCCOC(=O)N(c2ccccc2)C2CN3CCC2CC3)cc1 (stereo not given) | 99.5
COc1ccc(COC(=O)N(c2ccccc2)C2CN3CCC2CC3)cc1F (stereo not given) | 96.7
COc1ccc(CCN(C(=O)OC2C[C@H]3CC[C@H](C2)N3C)c2ccccc2)cc1 (stereo not given in full) | 97.9
CN1[C@@H]2CC[C@H]1C[C@@H](OC(=O)C(CO)c1ccccc1)C2 (stereo not given in full) | 96.7
O=C(OCCc1ccc(Cl)c(Cl)c1)N(c1ccccc1)C1CN2CCC1CC2 (stereo not given) | 98.8
COc1ccc(COC(=O)N(c2ccccc2)C2CN3CCC2CC3)cc1OC (stereo not given) | 98.7
O=C(OCc1ccccc1)N(c1ccccc1)C1CN2CCC1CC2 (stereo not given) | 97.2
COc1ccc(CCOC(=O)N(c2ccccc2)C2CN3CCC2CC3)cc1 (stereo not given) | 98.9
CN1CCCC(OC(=O)N(CCc2ccc(F)cc2)c2ccccc2)C1 (stereo not given) | 99.9
O=C(OCCc1ccccc1)N(c1ccccc1)C1CN2CCC1CC2 (stereo not given) | 96.9
COc1ccc(CCN(C(=O)OC2CCCN(C)C2)c2ccccc2)cc1 (stereo not given) | 97.7
Cc1ccc(CCCOC(=O)N(c2ccccc2)C2CN3CCC2CC3)cc1F (stereo not given) | 99.9
O=C(OC1CN2CCC1CC2)N(CCc1ccc(F)cc1)c1ccccc1 (racemic) | 99.8
O=C(OCCCc1ccc(Cl)c(Cl)c1)N(c1ccccc1)C1CN2CCC1CC2 (stereo not given) | 99.4
COc1ccc(CCN(C(=O)OC2CCN(C)CC2)c2ccccc2)cc1 | 99.7
COc1ccc(CCN(C(=O)OC2CCN(C)CC2)c2ccccc2)cc1OC | 96.5
COc1ccc(CCN(C(=O)OC2CN3CCC2CC3)c2ccccc2)cc1 (racemic) | 100
